Give inhibition at 10 µM for every item shown.
testSystem: hPXR (Homo sapiens (Human), UniProt O75469)
Sequence (O75469 whole entry): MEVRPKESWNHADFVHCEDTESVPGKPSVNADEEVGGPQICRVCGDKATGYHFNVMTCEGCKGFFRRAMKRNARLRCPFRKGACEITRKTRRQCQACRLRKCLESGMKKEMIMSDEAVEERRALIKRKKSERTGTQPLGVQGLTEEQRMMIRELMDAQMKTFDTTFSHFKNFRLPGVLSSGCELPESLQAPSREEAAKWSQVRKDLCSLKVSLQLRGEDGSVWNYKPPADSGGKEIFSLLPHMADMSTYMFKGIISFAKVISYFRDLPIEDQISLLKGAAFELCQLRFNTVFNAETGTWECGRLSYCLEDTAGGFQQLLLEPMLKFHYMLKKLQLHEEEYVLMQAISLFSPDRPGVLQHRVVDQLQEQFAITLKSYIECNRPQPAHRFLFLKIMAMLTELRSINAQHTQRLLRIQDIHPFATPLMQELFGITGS
protocol: hPXR binding assay
testContext: read-out: Binding (% inhibition at 10 μM)
Numbers only, in %.

Reference set (3 entries):
COc1ccc(OC)c(-n2nnc(C(=O)Nc3cccc(-n4cccc4)c3)c2C)c1; 24
CCC[C@H](CC)Oc1ccc(C(C)(C)C)cc1NC(=O)c1nnn(-c2cc(OC)ccc2OC)c1C; 93
COc1ccc(OC)c(-n2nnc(C(=O)NS(=O)(=O)c3ccc(C(C)(C)C)cc3)c2C)c1; 43

Count: 6. Required value per item: inhibition at 10 µM.
1. COc1ccc(-n2nnc(C(=O)Nc3cc(C)ccc3OC)c2C)cc1
2. CCCCOc1ccc(C(C)(C)C)cc1NC(=O)c1nnn(-c2ccc(OC)cc2OC)c1C
3. COc1ccc(OC)c(-n2nnc(C(=O)Nc3cc(C(C)(C)C)ccc3OCCCCCCCCI)c2C)c1
4. COc1ccc(OC)c(-n2nnc(C(=O)Nc3cc(OCCCCCCCCCl)cc(C(C)(C)C)c3)c2C)c1
5. CCCCOc1cc(NC(=O)c2nnn(-c3cc(C)ccc3OC)c2C)cc(C(C)(C)C)c1
6. COc1ccc(-n2nnc(C(=O)Nc3ccc(NC(C)=O)c(C(C)(C)C)c3)c2C)cc1 [E2]

Outgoing:
1: 53; 2: 54; 3: 68; 4: 58; 5: 62; 6: 54

* * *

testSystem: UniProt:O75469
protocol: hPXR binding assay
testContext: read-out: Binding (% inhibition at 10 μM)
reportedProperty: inhibition at 10 µM (%)
One number for each entry, in %.

Reference set (5 entries):
COc1ccc(OC)c(-n2nnc(C(=O)Nc3cc(N4C(=O)CCC4=O)cc(C(C)(C)C)c3)c2C)c1 [D7]; 77
CCC(C)Oc1ccc(C(C)(C)C)cc1NC(=O)c1nnn(-c2cc(Cl)ccc2OC)c1C (stereo not drawn) [F10]; 90
COc1ccc(OC)c(-n2nnc(C(=O)Nc3cc(OCCCCI)cc(C(C)(C)C)c3)c2C)c1 [D17]; 50
CCC(C)Oc1ccc(C(C)(C)C)cc1NC(=O)c1nnn(-c2cc(OC)ccc2OC)c1C (stereo not drawn) [B26]; 89
COc1ccc(OC)c(-n2nnc(C(=O)Nc3cc(OCCCCCCCC=O)cc(C(C)(C)C)c3)c2C)c1 [D26]; 77

Count: 4. Required value per item: inhibition at 10 µM.
1. COc1ccc(OC)c(-n2nnc(NC(=O)Nc3cccc(C(C)(C)C)c3)c2C)c1 [K4]
2. CCC[C@H](CC)Oc1ccc(C(=O)O)cc1NC(=O)c1nnn(-c2cc(OC)ccc2OC)c1C [M5]
3. COc1ccc(OC)c(-n2nnc(C(=O)Nc3cc(C(C)(C)C)ccc3OCC(C)C)c2C)c1 [B32]
4. COc1ccc(OC)c(-n2nnc(C(=O)Nc3ccc(N)c(C(C)(C)C)c3)c2C)c1 [C2]

Outgoing:
1. 24
2. 87
3. 81
4. 86
